System: Haemophilus influenzae
experimentalProtocol: Antibacterial activity against Haemophilus influenzae HIN 20-18 assessed as inhibition of bacterial growth incubated for 20 to 24 hrs by CLSI based broth microdilution method
Type: functional
measurementSetup: time 20-24 hrs
Readings of MIC for the listed compounds
All answers are understood in µg/mL, so give the number only.

Use the examples below as a reference point.
CC[C@H]1OC(=O)[C@@](C)(F)C(=O)[C@H](C)[C@@H](O[C@@H]2O[C@H](C)C[C@H](N(C)C)[C@H]2O)[C@](C)(OC)C[C@@H](C)C(=O)[C@H](C)[C@H]2N(CCCOC(=O)Nc3cccc(Cl)c3)C(=O)O[C@]12C :: 16
CC[C@H]1OC(=O)[C@@](C)(F)C(=O)[C@H](C)[C@@H](O[C@@H]2O[C@H](C)C[C@H](N(C)C)[C@H]2O)[C@](C)(OC)C[C@@H](C)C(=O)[C@H](C)[C@H]2N(CCCOC(=O)Nc3cccc(F)c3C)C(=O)O[C@]12C :: 16
CC[C@H]1OC(=O)[C@@](C)(F)C(=O)[C@H](C)[C@@H](O[C@@H]2O[C@H](C)C[C@H](N(C)C)[C@H]2O)[C@](C)(OC)C[C@@H](C)C(=O)[C@H](C)[C@H]2N(CCCOC(=O)Nc3cccc(C)c3C)C(=O)O[C@]12C :: 16

Now consider a different compound.
Q. Could you tell me which MIC is on file for CCOc1ccccc1NC(=O)OCCCN1C(=O)O[C@]2(C)[C@@H](CC)OC(=O)[C@@](C)(F)C(=O)[C@H](C)[C@@H](O[C@@H]3O[C@H](C)C[C@H](N(C)C)[C@H]3O)[C@](C)(OC)C[C@@H](C)C(=O)[C@H](C)[C@@H]12 ?
A. 8
